meta.source: patent US20080200392A1

# TARGET OR TEST SYSTEM: preformed immune complex of peroxidase-rabbit anti-peroxidase IgG (PAP complex) (rabbit; horseradish) (UniProt P00433)
# Sequence (P00433 31-338, one chain of several): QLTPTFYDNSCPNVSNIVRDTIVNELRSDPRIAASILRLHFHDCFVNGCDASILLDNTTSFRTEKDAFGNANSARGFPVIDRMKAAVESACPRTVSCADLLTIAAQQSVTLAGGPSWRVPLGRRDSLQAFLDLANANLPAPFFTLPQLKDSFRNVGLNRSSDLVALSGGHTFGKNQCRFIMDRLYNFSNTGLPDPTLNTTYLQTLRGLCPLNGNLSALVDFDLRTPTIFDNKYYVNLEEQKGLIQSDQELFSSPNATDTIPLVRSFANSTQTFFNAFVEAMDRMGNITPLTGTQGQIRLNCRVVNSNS
# MEASUREMENT DESCRIPTION: reverse ELISA competition: PAP pre-incubated with peptide, then on FcγIIa-coated plate (competitor: immobilized FcγIIa)
No end group written: not given here.
RESULT TYPE: OD 405 nm (OD 405 nm)
Could you give me the number in OD 405 nm? Just the number is fine.

Reference set (2 entries):
APPCARHLGELVWCT (not fully specified; cysteine pairing not given here) [… (SEQ ID NO:14)]; 0.956
APPDCAWHLGELVWCT [… (SEQ ID NO:16)]; 0.509

INPUT: What OD 405 nm value was documented for this binder, DCAFHLGELVWCT [… (SEQ ID NO:3)] ?
OUTPUT: 0.66

INPUT: // lookup OD 405 nm for APPCAWHLGELVWCT (not fully specified; cysteine pairing not given here) [… (SEQ ID NO:13)]
OUTPUT: 0.658

INPUT: # OD 405 nm lookup, item APPCAFHLGELVWCT (not fully specified; cysteine pairing not given here) [… (SEQ ID NO:15)]
OUTPUT: 0.605
